Test system: HEK293FT dCK*-only
protocol-summary: relative growth in counter assay (no AraC = 100%, AraC + DMSO = 0%); higher = more growth rescue independent of IKZF1
test-context: compound concentration: 5 uM; AraC concentration: 0.3 uM; overnight pretreatment + 4 days AraC
Here the recorded relative growth in counter assay is given for each entry.
Just the number please, in %, no unit attached.

- C[C@@H]1C[C@@H]([C@H](O)CC2CC(=O)NC(=O)C2)C(=O)[C@@H](C)C1: -33.1
- CCCCCCC[n+]1ccc(-c2cc[n+](CCCCCCC)cc2)cc1: -12.3

Lookup: Recorded relative growth in counter assay for N#Cc1cn([C@@H]2O[C@H](CO)[C@@H](O)[C@H]2O)c2ncnc(N)c12 with HEK293FT dCK*-only, please?
Found: -34.2

Lookup: Form: Entry = O=[N+]([O-])c1ccc(Cl)c([N+](=O)[O-])c1 | System = HEK293FT dCK*-only | relative growth in counter assay = ____
Found: -34.1

Lookup: Hello, I am looking for reported relative growth in counter assay with HEK293FT dCK*-only for CCCCC1(C2CCCC2)Cc2cc(OCCCC(=O)O)c(Cl)c(Cl)c2C1=O (stereo not drawn) . Could you help?
Found: 2.86

Lookup: Record CO[C@H]1[C@H](O)[C@H](O[C@H]2CC[C@@]3(C=O)[C@H](CC[C@@H]4[C@@H]3CC[C@]3(C)[C@@H](C5=CC(=O)OC5)CC[C@]43O)C2)O[C@@H](C)[C@@H]1O [Peruvoside] : what is its relative growth in counter assay with HEK293FT dCK*-only?
Found: -34.2

Lookup: Form field: relative growth in counter assay recorded for c1ccc2c(c1)sc1ccccc12 with HEK293FT dCK*-only (enter value)
Found: -4.73

Lookup: Param readout = relative growth in counter assay; param system = HEK293FT dCK*-only; param query = O=c1[nH]c2ccccc2n1C1CCN(CCCC(c2ccc(F)cc2)c2ccc(F)cc2)CC1 [Pimozide] ; response: value
Found: -9.38
